What OD450 was measured for each of the following?
Molecular target: T1, human CD22-ECD-His protein (human, UniProt P20273 20-687)
T1 construct: Made in house in HEK293E; also called hCD22-ECD-His; recombinant human CD22-ECD His protein; not shown: His tag
T1 sequence: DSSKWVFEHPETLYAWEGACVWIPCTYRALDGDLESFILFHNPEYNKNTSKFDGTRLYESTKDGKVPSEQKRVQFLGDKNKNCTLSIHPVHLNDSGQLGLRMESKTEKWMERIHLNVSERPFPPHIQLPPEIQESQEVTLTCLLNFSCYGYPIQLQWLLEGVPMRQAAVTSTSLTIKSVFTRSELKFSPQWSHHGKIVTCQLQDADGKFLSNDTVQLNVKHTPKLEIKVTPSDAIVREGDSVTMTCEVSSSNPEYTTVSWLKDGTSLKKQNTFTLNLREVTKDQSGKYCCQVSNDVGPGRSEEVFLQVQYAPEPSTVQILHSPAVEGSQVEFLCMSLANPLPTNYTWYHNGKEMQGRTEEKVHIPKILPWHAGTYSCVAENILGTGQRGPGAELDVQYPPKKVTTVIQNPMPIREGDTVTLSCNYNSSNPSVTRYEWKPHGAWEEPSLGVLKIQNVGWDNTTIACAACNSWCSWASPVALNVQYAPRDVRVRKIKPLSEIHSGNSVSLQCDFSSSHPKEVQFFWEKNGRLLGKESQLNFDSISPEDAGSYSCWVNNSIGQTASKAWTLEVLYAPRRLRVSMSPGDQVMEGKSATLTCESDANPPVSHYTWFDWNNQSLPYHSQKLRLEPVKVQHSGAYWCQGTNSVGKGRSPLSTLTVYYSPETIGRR
Assay: ELISA, Ab 100.00 nM
Answers are plain numbers, in OD450.

Batch request: OD450 per item, same order as input.
1. F2.104.10 (antibody, human IgG1, lambda, V domains shown, Human-murine chimeric IgG1, lambda) VH: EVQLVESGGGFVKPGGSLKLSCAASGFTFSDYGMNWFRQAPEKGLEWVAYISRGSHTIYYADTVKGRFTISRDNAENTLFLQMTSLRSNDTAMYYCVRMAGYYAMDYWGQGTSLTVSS VL: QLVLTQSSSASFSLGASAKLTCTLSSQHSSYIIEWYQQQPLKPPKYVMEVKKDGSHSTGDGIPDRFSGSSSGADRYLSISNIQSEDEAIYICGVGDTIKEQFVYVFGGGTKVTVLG
2. F2.70.2 (antibody, human IgG1, lambda, V domains shown, Human-murine chimeric IgG1, lambda) VH: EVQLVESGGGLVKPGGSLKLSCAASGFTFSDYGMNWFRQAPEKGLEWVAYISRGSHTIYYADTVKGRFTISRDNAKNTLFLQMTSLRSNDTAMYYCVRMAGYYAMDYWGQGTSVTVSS VL: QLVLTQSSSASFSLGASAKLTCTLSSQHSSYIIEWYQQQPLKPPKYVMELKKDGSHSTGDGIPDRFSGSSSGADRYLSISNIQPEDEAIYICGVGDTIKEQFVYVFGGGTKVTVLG

a:
2.44
2.24
